- Test system: HCT-116 cell line
- test_summary: MTT assay, cytotoxicity on HCT-116 cell line
- Format: cell-based, human
- condition_info: Homo sapiens, HCT-116, 48 h treatment, NA: not active up to 200 μM, read-out: HCT-116 IC50 (μM) ± SD
attribute_measured: IC50 (µM)
Express your answer in µM, writing the number without its unit.

(Q) Give its IC50 value. Item: CCCC(CCC)C(=O)OCCSS(C)(=O)=O
(A) 136

Attention now shifts to the item below.
(Q) Give its IC50 value. Item: CS(=O)(=O)CSC(=O)c1ccc(N)cc1O
(A) 26.3

###

- target: STAT1 (Homo sapiens, UniProt P42224)
- Construct: First, 75 nM of each SH2-containing protein was incubated with the test compound for 15 min
- Sequence (P42224 1-750): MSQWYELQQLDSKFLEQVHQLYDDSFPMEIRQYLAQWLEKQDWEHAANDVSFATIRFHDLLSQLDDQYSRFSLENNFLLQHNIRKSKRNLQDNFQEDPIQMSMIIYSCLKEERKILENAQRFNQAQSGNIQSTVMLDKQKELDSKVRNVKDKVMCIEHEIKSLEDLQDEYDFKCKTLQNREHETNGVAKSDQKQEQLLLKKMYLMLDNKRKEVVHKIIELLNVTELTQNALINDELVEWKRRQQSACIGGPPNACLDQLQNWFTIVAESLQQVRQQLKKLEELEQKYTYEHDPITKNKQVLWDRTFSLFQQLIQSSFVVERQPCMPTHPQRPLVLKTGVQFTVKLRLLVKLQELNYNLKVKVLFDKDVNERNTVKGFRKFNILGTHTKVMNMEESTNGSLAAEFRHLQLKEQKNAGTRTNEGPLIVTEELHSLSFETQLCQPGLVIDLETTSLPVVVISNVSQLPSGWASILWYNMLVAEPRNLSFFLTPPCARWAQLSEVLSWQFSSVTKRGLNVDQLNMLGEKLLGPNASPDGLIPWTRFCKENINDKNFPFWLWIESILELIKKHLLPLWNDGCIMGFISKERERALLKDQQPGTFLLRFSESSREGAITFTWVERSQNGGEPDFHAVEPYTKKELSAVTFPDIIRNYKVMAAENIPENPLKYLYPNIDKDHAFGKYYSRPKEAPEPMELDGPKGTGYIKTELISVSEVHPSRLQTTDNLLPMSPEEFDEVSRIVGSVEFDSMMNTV
- test_summary: AlphaScreen-based assay, selectivity versus STAT1
- Format: binding
- condition_info: 30 μM
Where a name gives a salt, the structure may show the parent alone.
Listed here: items and their measured inhibition at 30 µM.
Express your answer in %, writing the number without its unit.

Before answering, review these 2 worked examples.
(Q) Give its inhibition at 30 µM value. Item: O=C(O)Cc1ccccc1Nc1c(Cl)cccc1Cl [Diclofenac sodium salt, reference compound]
(A) 6.5

(Q) Also CC1=C(CC(=O)O)c2cc(F)ccc2/C1=C\c1ccc([S+](C)[O-])cc1 (stereo not drawn) [Sulindac, sulindac, reference compound] , if possible.
(A) 4.9

Continuing:
(Q) Give its inhibition at 30 µM value. Item: CCCC(CCC)C(=O)O [VA, valproic acid, reference compound]
(A) 2.7

(Q) Also CC(=O)Oc1ccccc1C(=O)OCCSS(C)(=O)=O , if possible.
(A) 99.8

(Q) Also Cc1ccc(S(=O)(=O)SCC(=O)Nc2ccc(C(=O)O)c(O)c2)cc1 , if possible.
(A) 39.6

(Q) Also CC(=O)Oc1ccccc1C(=O)O [ASA, acetyl salicylic acid, reference compound] , if possible.
(A) 6.3

###

Listed here: items and their measured inhibition at 3 µM.
- target: STAT1 (Homo sapiens)
- Construct: First, 75 nM of each SH2-containing protein was incubated with the test compound for 15 min
- test_summary: AlphaScreen-based assay, selectivity versus STAT1
- Format: binding
- condition_info: 3 μM
Express your answer in %, writing the number without its unit.

Before answering, review these 5 worked examples.
(Q) Give its inhibition at 3 µM value. Item: Cc1ccc(S(=O)(=O)SCC(=O)Nc2ccc(C(=O)O)c(O)c2)cc1
(A) 18

(Q) Also CC1=C(CC(=O)OCCSS(C)(=O)=O)c2cc(F)ccc2/C1=C\c1ccc([S+](C)[O-])cc1 (stereo not drawn) , if possible.
(A) 46.7

(Q) Also CCCC(CCC)C(=O)NCCSS(C)(=O)=O , if possible.
(A) 1.9

(Q) Also CCCC(CCC)C(=O)OCCSS(C)(=O)=O , if possible.
(A) 44.9

(Q) Also CS(=O)(=O)SCCOC(=O)Cc1ccccc1Nc1c(Cl)cccc1Cl , if possible.
(A) 35.4

Attention now shifts to the item below.
(Q) Give its inhibition at 3 µM value. Item: CC(=O)Oc1ccccc1C(=O)OCCSS(C)(=O)=O
(A) 44.2

###

Listed here: items and their measured inhibition at 3 µM.
- target: STAT3-SH2 domain (Homo sapiens)
- Construct: First, 75 nM of each SH2-containing protein was incubated with the test compound for 15 min
- Sequence (P40763 whole entry, the tested form may be a part): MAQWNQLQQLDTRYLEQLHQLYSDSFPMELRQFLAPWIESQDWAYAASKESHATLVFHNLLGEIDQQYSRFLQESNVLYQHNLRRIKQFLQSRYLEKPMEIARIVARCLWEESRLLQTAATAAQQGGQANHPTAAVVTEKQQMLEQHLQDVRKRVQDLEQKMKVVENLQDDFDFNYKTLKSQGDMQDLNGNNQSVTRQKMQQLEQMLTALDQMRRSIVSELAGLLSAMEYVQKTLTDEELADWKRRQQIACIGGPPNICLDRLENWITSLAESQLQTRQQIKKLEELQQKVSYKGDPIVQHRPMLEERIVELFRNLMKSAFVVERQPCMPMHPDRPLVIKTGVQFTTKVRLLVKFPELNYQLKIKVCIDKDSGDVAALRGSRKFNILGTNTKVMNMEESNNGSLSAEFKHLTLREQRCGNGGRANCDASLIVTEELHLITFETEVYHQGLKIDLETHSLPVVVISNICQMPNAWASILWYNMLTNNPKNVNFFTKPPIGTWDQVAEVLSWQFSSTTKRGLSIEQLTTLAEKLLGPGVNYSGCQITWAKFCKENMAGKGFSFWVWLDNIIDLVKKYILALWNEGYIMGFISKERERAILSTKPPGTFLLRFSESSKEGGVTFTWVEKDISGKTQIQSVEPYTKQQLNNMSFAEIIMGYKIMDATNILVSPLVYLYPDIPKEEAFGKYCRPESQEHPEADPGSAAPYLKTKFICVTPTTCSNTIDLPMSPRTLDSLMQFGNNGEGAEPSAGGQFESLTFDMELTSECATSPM
- test_summary: AlphaScreen-based assay, STAT3-SH2 domain / pTyr peptide binding
- condition_info: 3 μM
Express your answer in %, writing the number without its unit.

(Q) Give its inhibition at 3 µM value. Item: CC1=C(CC(=O)OCCSS(C)(=O)=O)c2cc(F)ccc2/C1=C\c1ccc([S+](C)[O-])cc1 (stereo not drawn)
(A) 105

(Q) Also Cc1ccc(S(=O)(=O)SCC(=O)Nc2ccc(C(=O)O)c(O)c2)cc1 , if possible.
(A) 46

(Q) Also CCCC(CCC)C(=O)OCCSS(C)(=O)=O , if possible.
(A) 101

(Q) Also CCCC(CCC)C(=O)NCCSS(C)(=O)=O , if possible.
(A) 67.2

(Q) Also CC(=O)Oc1ccccc1C(=O)OCCSS(C)(=O)=O , if possible.
(A) 93.5

Attention now shifts to the item below.
(Q) Give its inhibition at 3 µM value. Item: CS(=O)(=O)SCCOC(=O)Cc1ccccc1Nc1c(Cl)cccc1Cl
(A) 110

###

- target: STAT3-SH2 domain (Homo sapiens)
- Construct: First, 75 nM of each SH2-containing protein was incubated with the test compound for 15 min
- test_summary: AlphaScreen-based assay, STAT3-SH2 domain / pTyr peptide binding
- condition_info: 30 μM, a = mean of two experiments
Listed here: items and their measured inhibition at 30 µM.

Before answering, review these 2 worked examples.
(Q) Give its inhibition at 30 µM value. Item: CS(=O)(=O)SCCOC(=O)Cc1ccccc1Nc1c(Cl)cccc1Cl [Compound 5]
(A) 102%

(Q) Also Cc1ccc(S(=O)(=O)OCC(=O)Nc2ccc(C(=O)O)c(O)c2)cc1 [Compound S3I-301, reference compound] , if possible.
(A) 7.2%

Attention now shifts to the item below.
(Q) Give its inhibition at 30 µM value. Item: CC(=O)Oc1ccccc1C(=O)OCCSS(C)(=O)=O [Compound 4]
(A) 100%

###

- target: STAT3-SH2 domain (Homo sapiens)
- Construct: First, 75 nM of each SH2-containing protein was incubated with the test compound for 15 min
- test_summary: AlphaScreen-based assay, STAT3-SH2 domain / pTyr peptide binding
- condition_info: 30 μM, a = mean of two experiments
Listed here: items and their measured inhibition at 30 µM.
Express your answer in %, writing the number without its unit.

Before answering, review these 3 worked examples.
(Q) Give its inhibition at 30 µM value. Item: CC(=O)Oc1ccccc1C(=O)O [ASA, acetyl salicylic acid, reference compound]
(A) 3.8

(Q) Also CS(=O)(=O)CSC(=O)c1ccc(N)cc1O , if possible.
(A) 41.8

(Q) Also CCCC(CCC)C(=O)OCCSS(C)(=O)=O , if possible.
(A) 102

Continuing:
(Q) Give its inhibition at 30 µM value. Item: CCCC(CCC)C(=O)O [VA, valproic acid, reference compound]
(A) 0.2

###

Listed here: items and their measured IC50.
- target: STAT1 (Homo sapiens)
- Construct: First, 75 nM of each SH2-containing protein was incubated with the test compound for 15 min
- Sequence (P42224 1-750): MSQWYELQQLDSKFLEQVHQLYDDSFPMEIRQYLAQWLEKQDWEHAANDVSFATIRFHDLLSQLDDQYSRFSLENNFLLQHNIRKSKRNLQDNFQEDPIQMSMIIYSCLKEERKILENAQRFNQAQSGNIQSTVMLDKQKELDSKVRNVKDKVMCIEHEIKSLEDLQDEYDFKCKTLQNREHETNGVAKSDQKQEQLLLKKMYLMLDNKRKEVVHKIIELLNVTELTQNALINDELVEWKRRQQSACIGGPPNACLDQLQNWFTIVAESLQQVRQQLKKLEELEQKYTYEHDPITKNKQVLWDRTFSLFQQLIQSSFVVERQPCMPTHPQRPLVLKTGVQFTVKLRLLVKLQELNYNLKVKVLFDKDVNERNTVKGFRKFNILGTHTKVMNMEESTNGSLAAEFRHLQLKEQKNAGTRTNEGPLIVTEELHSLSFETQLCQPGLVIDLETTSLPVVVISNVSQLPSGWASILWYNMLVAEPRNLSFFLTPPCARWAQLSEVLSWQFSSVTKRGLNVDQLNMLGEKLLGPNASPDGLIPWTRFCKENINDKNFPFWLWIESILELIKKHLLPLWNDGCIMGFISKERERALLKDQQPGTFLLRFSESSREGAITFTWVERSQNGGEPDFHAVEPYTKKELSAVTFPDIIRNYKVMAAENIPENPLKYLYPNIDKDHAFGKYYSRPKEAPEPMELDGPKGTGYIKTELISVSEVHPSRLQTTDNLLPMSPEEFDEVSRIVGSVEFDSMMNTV
- test_summary: AlphaScreen-based assay, selectivity versus STAT1
- Format: binding
- condition_info: read-out: STAT1 IC50 (μM) ± SD
- Description: STAT3 inhibitory activity of the described compounds was tested by the AlphaScreen-based assay to evaluate the potential inhibition of the interaction between STAT3-SH2 domain and pTyr-containing peptides according to the previously reported procedure. For the most interesting compounds, selectivity tests versus STAT1 and Grb2 (Growth factor receptor-bound protein 2) were performed. […]

(Q) Give its IC50 value. Item: CCCC(CCC)C(=O)NCCSS(C)(=O)=O
(A) > 3 µM

(Q) Also CC(=O)Oc1ccccc1C(=O)O [ASA, acetyl salicylic acid, reference compound] , if possible.
(A) > 30 µM

(Q) Also Cc1ccc(S(=O)(=O)SCC(=O)Nc2ccc(C(=O)O)c(O)c2)cc1 , if possible.
(A) > 30 µM

Continuing:
(Q) Give its IC50 value. Item: CCCC(CCC)C(=O)O [VA, valproic acid, reference compound]
(A) > 30 µM

(Q) Also CC(=O)Oc1ccccc1C(=O)OCCSS(C)(=O)=O , if possible.
(A) 3.6 µM

(Q) Also CC1=C(CC(=O)OCCSS(C)(=O)=O)c2cc(F)ccc2/C1=C\c1ccc([S+](C)[O-])cc1 (centres unmarked) , if possible.
(A) > 3 µM

Value source: paper PMC6009886
